system-under-test: T1, human CD81 on CD81-expressing cells (Jurkat E6.1, human PBMC, Ramos) (human, UniProt P60033 1-236)
T1 sequence: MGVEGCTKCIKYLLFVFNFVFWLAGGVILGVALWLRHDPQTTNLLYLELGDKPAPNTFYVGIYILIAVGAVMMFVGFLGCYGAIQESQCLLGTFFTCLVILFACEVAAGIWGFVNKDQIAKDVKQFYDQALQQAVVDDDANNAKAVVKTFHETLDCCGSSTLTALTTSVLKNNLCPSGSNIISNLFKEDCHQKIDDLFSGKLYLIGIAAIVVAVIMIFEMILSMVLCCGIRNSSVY
test-name: cell-based or functional assay
Listing: Jurkat chemotaxis (% of control IgG4) at 1 µg/mL of selected binders
Write it as a number; the unit % goes unstated.

• 002-F05 (antibody, human IgG4 S228P, lambda, V domains shown, IgG4 S228P) VH: EVQLLESGGGLVQPGGSLRLSCAASGFTFSSNYMSWVRQAPGKGLEWVSYISSSSTYTDYADSVKGRFTISRDNSKNTLYLQMNSLRAEDTAVYYCARYSYGRDDFDYWGQGTLVTVSS VL: QSVLTQPASASGTPGQRVTISCTGSTSNIGAGYDTHWYQQLPGTAPKLLIYGNSNRPSGVPDRFSGSKSGTSASLAISGLRSEDEADYYCQSYDTNLNVWVFGGGTKLTVLG = 5
• 002-C09 (antibody, human IgG4 S228P, lambda, V domains shown, IgG4 S228P) VH: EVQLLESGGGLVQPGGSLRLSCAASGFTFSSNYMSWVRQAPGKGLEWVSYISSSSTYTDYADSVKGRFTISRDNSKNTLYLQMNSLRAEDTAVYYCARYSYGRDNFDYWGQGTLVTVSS VL: QSVLTQPASASGTPGQRVTISCTGSTSNIGAGYGTHWYQRLPGTAPKLLIYGNSNRPSGVPDRFSGSKSGTSASLAISGLRSEDEADYYCQSYDTNLSGWVFGGGTKLTVLG = -1
• 002-A07 S115G (antibody, human IgG4 S228P, lambda, V domains shown, IgG4 S228P; glycosylation site mutant of 002-A07 VL) VH: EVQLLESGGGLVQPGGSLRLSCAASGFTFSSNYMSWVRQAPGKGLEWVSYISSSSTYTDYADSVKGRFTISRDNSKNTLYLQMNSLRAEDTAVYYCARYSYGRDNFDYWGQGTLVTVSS VL: QSVLTQPPSASGTPGQRVTISCTGSTSNIGAGYDTHWYQQLPGTAPKLLIYGNSNRPSGVPDRFSGSKSGTSASLAISGLRSEDEADYYCQSYDTNLGVWVFGGGTKLTVLG = -9
• 002-A07 S115A (antibody, human IgG4 S228P, lambda, V domains shown, IgG4 S228P; glycosylation site mutant of 002-A07 VL) VH: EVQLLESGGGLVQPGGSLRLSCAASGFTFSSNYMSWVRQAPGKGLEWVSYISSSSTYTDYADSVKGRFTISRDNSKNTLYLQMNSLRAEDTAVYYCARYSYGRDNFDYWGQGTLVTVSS VL: QSVLTQPPSASGTPGQRVTISCTGSTSNIGAGYDTHWYQQLPGTAPKLLIYGNSNRPSGVPDRFSGSKSGTSASLAISGLRSEDEADYYCQSYDTNLAVWVFGGGTKLTVLG = -4
• 003-F08 (antibody, human IgG4 S228P, lambda, V domains shown, IgG4 S228P) VH: EVQLLESGGGLVQPGGSLRLSCAASGFTFSSNYMSWVRQAPGKGPEWVSYISSSSTYADYADSVKGRFTISRDNSKNTLYLQMNSLRAEDTAVYYCARYSYGRDNFDYWGQGTLVTVSS VL: QSVLTQPSSASGTPGQRVTISCTGSTSNIGAGYDTHWYQQLPGTAPKLLIYGNSNRPSGVPDRFSGSKSGTSASLAISGLRSEDEADYYCQSYDTNLSAWVFGGGTKLTVLG = -3
• 003-A10 (antibody, human IgG4 S228P, lambda, V domains shown, IgG4 S228P) VH: EVQLLESGGGLVQPGGSLRLSCAASGFTFSSNYMSWVRQAPGKGLEWVSYISSSSTYTDYADSVKGRFTISRDNSKNTLYLQMNSLRAEDTAVYYCARYSYGRDTFDYWGQGTLVTVSS VL: QSVLTQPFSASGTPGQRVTISCTGSTSNIGAGYDTHWYQQLPGTAPKLLIYGNSNRPSGVPDRFSGSKSGTSASLAISGLRSEDEADYYCQSYDTNLSVWVFGGGTKLTVLG = 3

What value of Jurkat chemotaxis (% of control IgG4) at 1 µg/mL has been recorded for this entry: 002-D10 (antibody, human IgG4 S228P, lambda, V domains shown, IgG4 S228P) VH: EVQLLESGGGLVQPGGSLRLSCAASGFTFSSNYMSWVRQAPGKGPEWVSYISSSSTYTDYADSVKGRFTISRDNSKNTLYLQMNSLRAEDTAVYYCARYSYGRDNFDYWGQGTLVTVSS VL: QSVLTQPSSASGTPGQRVTISCTGSTSNIGAGYDTHWYQQLPGTAPKLLIYGNSNRPSGVPDRFSGSKSGTSASLAVSGLRSEDEAEYYCQSYDTNLSGWVFGGGTKLTVLG 6

All values here come from patent US20150139990A1.
